target.desc: rat CB2 (Rattus norvegicus, UniProt Q9QZN9)
Sequence (Q9QZN9 whole entry): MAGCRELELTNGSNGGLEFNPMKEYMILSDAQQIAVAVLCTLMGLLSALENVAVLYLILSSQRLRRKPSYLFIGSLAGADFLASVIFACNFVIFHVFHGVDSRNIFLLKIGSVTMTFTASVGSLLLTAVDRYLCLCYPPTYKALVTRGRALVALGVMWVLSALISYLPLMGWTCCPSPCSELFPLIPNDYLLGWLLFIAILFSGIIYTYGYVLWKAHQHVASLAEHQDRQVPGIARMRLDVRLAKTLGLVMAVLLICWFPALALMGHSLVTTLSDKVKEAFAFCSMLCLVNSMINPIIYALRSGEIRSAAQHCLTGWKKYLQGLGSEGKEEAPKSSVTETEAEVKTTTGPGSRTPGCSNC
method.notes: rat CB2 radioligand binding assay ([3H]CP 55,940 competition)
Set-up: expressed in transfected cells; host or cells: HEK293
condition.description: rat CB2 (Ki, nM), HEK293 membranes, 0.5 nM [3H]CP 55,940
parameter.measured: Ki (nM)
Numeric only. Scale: nM

Consider the worked cases shown below.
[
  {
    "compound": "Cn1c(C(C)(C)C)c/c(=N\\C(=O)c2cc(C#N)ccc2OCC(C)(C)O)n1C[C@H]1CCCO1",
    "uom": "nM",
    "Ki": 11
  },
  {
    "compound": "CCCn1/c(=N/C(=O)c2cc(C(F)(F)F)ccc2OCC(C)(C)O)cc(C(C)(C)C)n1C",
    "uom": "nM",
    "Ki": 86
  },
  {
    "compound": "CN(C[C@@H]1CCCO1)c1ccc(C(F)(F)F)cc1C(=O)/N=c1\\cc(C(C)(C)C)n(C)n1C[C@H]1CCCO1",
    "uom": "nM",
    "Ki": 343
  },
  {
    "compound": "Cn1c(C(C)(C)C)c/c(=N\\C(=O)c2cc(C(F)(F)F)ccc2OCC(C)(C)O)n1CCCC(F)(F)F",
    "uom": "nM",
    "Ki": 5.5
  }
]

Ki reading for C[C@@H](O)COc1ccc(C(F)(F)F)cc1C(=O)/N=c1\cc(C(C)(C)C)n(C)n1C[C@H]1CCCO1 : 18

Quick note, Ki for Cn1c(C(C)(C)C)c/c(=N\C(=O)c2cc(C(F)(F)F)ccc2OCC[C@H]2COC(C)(C)O2)n1C[C@H]1CCCO1 landed at 36

All values here come from patent US8188135B2.
